- Tested on: HS 578T breast
- assayDetails: NCI tumour cell line growth inhibition, 48 h
quantityName: log10(TGI) (log10 of the value in µM)

[
  {
    "molecule": "CO/C=C(/C(=O)OC)c1ccccc1[C@H]1C[C@@H]1c1ccc(OC)cc1",
    "testSystem": "HS 578T breast",
    "observedMeasurement": 1.93
  },
  {
    "molecule": "Cc1cc(C)c2c(=O)n(CC(O)CN3CCN(c4ncccn4)CC3)sc2n1 (centres undefined)",
    "testSystem": "HS 578T breast",
    "observedMeasurement": 1.63
  },
  {
    "molecule": "Cc1cc([C@H](C#N)c2nc3ccccc3s2)nc(Cl)n1",
    "testSystem": "HS 578T breast",
    "observedMeasurement": 1.52
  },
  {
    "molecule": "O=c1[nH]/c(=C/c2cccs2)c(=O)[nH]/c1=C/c1ccc(OCc2ccccc2)cn1",
    "testSystem": "HS 578T breast",
    "observedMeasurement": -0.69
  },
  {
    "molecule": "C=CC[n+]1c(/C=C2\\Sc3ccccc3N2C)sc(-c2ccccc2)c1-c1ccccc1",
    "testSystem": "HS 578T breast",
    "observedMeasurement": 1.29
  }
]
